Quick reference for Herbicidal effect index, Setaria viridis among some compounds
# System: Setaria viridis
# procedure text: Test Example 2: herbicidal effects in farmland soil treatment
# Format: in vivo
# Parameters: scale not given here
# cond: 1000 g active ingredient per hectare, 21st day after treatment
assay readout: Herbicidal effect index, Setaria viridis

- COc1ccc(-n2c(=O)c(C(=O)C3=C(O)CCCC3=O)cc3cccnc32)cn1: 4
- O=C1CCCC(O)=C1C(=O)c1cc2cccnc2n(-c2ccccc2)c1=O: 5
- COc1ccc(-n2c(=O)c(C(=O)C3=C(O)CCCC3=O)cc3cccnc32)cc1: 5
- CC1(C)CC(=O)C(C(=O)c2cnc3ccccc3n2)=C(O)C1 [Comparative compound C, reference compound]: 0

====

# Tested on: Monochoria vaginalis (Burm. f.) Presl var. plantaginea (Roxb.) Solms-Laub.
# procedure text: Test Example 1: herbicidal effects in paddy field soil treatment
# Format: in vivo
# Set-up: scale not given here
# cond: 1000 g active ingredient per hectare, 21st day after treatment
# Source text: 100-cm^2 plastic pots were filled with paddy field soil. After puddling and leveling, seeds of Echinochloa oryzicola Vasing, Monochoria vaginalis (Burm. f.) Presl var. plantaginea (Roxb.) Solms-Laub., and Scirpus juncoides Roxb. var. ohwianus. T. Koyama were sowed in the pots, and the soil was waterlogged to a water depth of 3 cm. […]
Quick reference for Herbicidal effect index, Monochoria vaginalis among some molecules
assay readout: Herbicidal effect index, Monochoria vaginalis

• CCSCn1c(=O)c(C(=O)C2=C(O)CCCC2=O)cc2cccnc21 [II-19] = 5
• Cn1c(=O)c(C(=O)C2=C(O)CCCC2=O)cc2ccc(C(F)F)nc21 [II-131] = 5
• CC1(C)CCC(=O)C(C(=O)c2cnc3ccccc3n2)=C1O [Comparative compound D, reference compound] = 4
• O=C1CCCC(O)=C1C(=O)c1cc2ccc(C(F)F)nc2n(-c2ccccc2)c1=O [II-133] = 5
• O=C1CCCC(O)=C1C(=O)c1cc2cccnc2n(Cc2ccccc2)c1=O [II-24] = 5
• CCn1c(=O)c(C(=O)C2=C(O)CCCC2=O)cc2cccnc21 [II-3] = 5
• COc1ccc(-n2c(=O)c(C(=O)C3=C(O)CCCC3=O)cc3ccccc32)cc1 [I-56] = 5
• O=C1CCCC(O)=C1C(=O)c1cc2cccnc2n(-c2cccc(C(F)(F)F)c2)c1=O [II-52] = 5
• Cn1c(=O)c(C(=O)C2=C(O)CCCC2=O)cc2ccc(C(F)(F)F)nc21 [II-136] = 5
• Cn1c(=O)c(C(=O)C2=C(O)CCCC2=O)cc2ccccc21 [I-2] = 5
• COc1ccccc1-n1c(=O)c(C(=O)C2=C(O)CCCC2=O)cc2cccnc21 [II-54] = 5
• Cc1ccc2cc(C(=O)C3=C(O)CCCC3=O)c(=O)n(C)c2n1 [II-121] = 5
• CCOCCn1c(=O)c(C(=O)C2=C(O)CCCC2=O)cc2cccnc21 [II-15] = 5
• Cn1c(=O)c(C(=O)C2=C(O)CCCC2=O)cc2cccnc21 [II-2] = 5
• O=C1CCCC(O)=C1C(=O)c1cnccn1 [Comparative compound A, reference compound] = 0
• COc1ccc(-n2c(=O)c(C(=O)C3=C(O)CCCC3=O)cc3cccnc32)cc1 [II-56] = 5
• COc1ccccc1Cn1c(=O)c(C(=O)C2=C(O)CCCC2=O)cc2cccnc21 [II-37] = 5
• Cc1ccc(C)c(-n2c(=O)c(C(=O)C3=C(O)CCCC3=O)cc3cccnc32)c1 [II-58] = 5
• O=C1CCCC(O)=C1C(=O)c1cc2cccnc2n(-c2cccc(F)c2)c1=O [II-43] = 5
• O=C1CCCC(O)=C1C(=O)c1cc2cccnc2n(Cc2cccc(Cl)c2)c1=O [II-29] = 5
• Cn1c(=O)c(C(=O)C2=C(O)CCCC2=O)cc2ccc(C(F)(F)Cl)nc21 [II-141] = 5
• Cc1cc(-n2c(=O)c(C(=O)C3=C(O)CCCC3=O)cc3cccnc32)no1 [II-63] = 5
• CC(C)c1ccc2cc(C(=O)C3=C(O)CCCC3=O)c(=O)n(-c3ccccc3)c2n1 [II-128] = 5
• O=C1CCCC(O)=C1C(=O)c1cc2cccnc2n(-c2ccc3c(c2)OCCO3)c1=O [II-118] = 5
• COc1cccc(-n2c(=O)c(C(=O)C3=C(O)CCCC3=O)cc3cccnc32)c1 [II-55] = 5

====

# Test system: Echinochloa crus-galli (L.) P. Beauv. var. crus-galli
# procedure text: Test Example 3: herbicidal effects in farmland foliar treatment
# Format: in vivo
# Parameters: scale not given here
# cond: 1000 g active ingredient per hectare, 14th day after treatment
assay readout: Herbicidal effect index, Echinochloa crus-galli

• O=C1CCCC(O)=C1C(=O)c1cc2ccc(C(F)(F)Cl)nc2n(-c2ccccc2)c1=O = 5
• O=C1CCCC(O)=C1C(=O)c1cnccn1 [Comparative compound A, reference compound] = 0
• O=C1CCCC(O)=C1C(=O)c1cc2ccc(C(F)F)nc2n(-c2ccccc2)c1=O = 5
• Cc1ccc(C)c(-n2c(=O)c(C(=O)C3=C(O)CCCC3=O)cc3cccnc32)c1 = 5
• CC1(C)CCC(=O)C(C(=O)c2cnc3ccccc3n2)=C1O [Comparative compound D, reference compound] = 0
• Cc1cc(-n2c(=O)c(C(=O)C3=C(O)CCCC3=O)cc3cccnc32)no1 = 5
• Cn1c(=O)c(C(=O)C2=C(O)CCCC2=O)cc2ccc(C(F)(F)Cl)nc21 = 3
• Cc1ccc2cc(C(=O)C3=C(O)CCCC3=O)c(=O)n(-c3ccccc3)c2n1 = 5
• Cn1c(=O)c(C(=O)C2=C(O)CCCC2=O)cc2ccc(C(F)(F)F)nc21 = 5

====

# Tested on: Echinochloa oryzicola Vasing
# procedure text: Test Example 1: herbicidal effects in paddy field soil treatment
# Type: in vivo
# Design: scale not given here
# cond: 1000 g active ingredient per hectare, 21st day after treatment
assay readout: Herbicidal effect index, Echinochloa oryzicola

- O=C1CCCC(O)=C1C(=O)c1cc2cccnc2n(-c2cccc(C(F)(F)F)c2)c1=O: 5
- Cn1c(=O)c(C(=O)C2=C(O)CCCC2=O)cc2cccnc21: 5
- Cn1c(=O)c(C(=O)C2=C(O)CCCC2=O)cc2ccc(C(F)F)nc21: 5
- CCSCn1c(=O)c(C(=O)C2=C(O)CCCC2=O)cc2cccnc21: 5
- Cc1ccccc1-n1c(=O)c(C(=O)C2=C(O)CCCC2=O)cc2cccnc21: 5
- O=C1CCCC(O)=C1C(=O)c1cc2ncccc2n(-c2ccccc2)c1=O: 4
- Cc1cc(-n2c(=O)c(C(=O)C3=C(O)CCCC3=O)cc3cccnc32)no1: 5
- O=C1CCCC(O)=C1C(=O)c1cnccn1 [Comparative compound A, reference compound]: 2
- COc1ccc(-n2c(=O)c(C(=O)C3=C(O)CCCC3=O)cc3ccccc32)cc1: 5

====

# System: Setaria viridis
# procedure text: Test Example 2: herbicidal effects in farmland soil treatment
# Assay type: in vivo
# Set-up: scale not given here
# cond: 1000 g active ingredient per hectare, 21st day after treatment
Quick reference for Herbicidal effect index, Setaria viridis among some compounds
assay readout: Herbicidal effect index, Setaria viridis

- CCCn1c(=O)c(C(=O)C2=C(O)CCCC2=O)cc2cccnc21: 4
- COc1ccccc1-n1c(=O)c(C(=O)C2=C(O)CCCC2=O)cc2cccnc21: 5
- CCSCn1c(=O)c(C(=O)C2=C(O)CCCC2=O)cc2cccnc21: 4
- Cn1c(=O)c(C(=O)C2=C(O)CCCC2=O)cc2ccc(C(F)(F)Cl)nc21: 4
- Cn1c(=O)c(C(=O)C2=C(O)CCCC2=O)cc2ccc(C(F)(F)F)nc21: 4

====

Quick reference for melting point among some compounds
assay readout: melting point

* COc1ccc(-n2c(=O)c(C(=O)C3=C(O)CCCC3=O)cc3cccnc32)cn1 | 220 to 222 °C
* COc1ccccc1Cn1c(=O)c(C(=O)C2=C(O)CCCC2=O)cc2cccnc21 | 147 to 150 °C
* O=C1CCCC(O)=C1C(=O)c1cc2cccnc2n(-c2ccc3c(c2)OCCO3)c1=O | 226 to 228 °C
* Cc1cc(-n2c(=O)c(C(=O)C3=C(O)CCCC3=O)cc3cccnc32)no1 | 113 to 116 °C
* Cn1c(=O)c(C(=O)C2=C(O)CCCC2=O)cc2ccccc21 | 179 to 181 °C
* Cn1c(=O)c(C(=O)C2=C(O)CCCC2=O)cc2ccc(C(F)(F)F)nc21 | 194 to 196 °C
* O=C1CCCC(O)=C1C(=O)c1cc2cccnc2n(-c2ccccc2)c1=O | 212 to 214 °C
* O=C1CCCC(O)=C1C(=O)c1cc2cccnc2n(Cc2ccccc2)c1=O | 190 to 192 °C
* CCSCn1c(=O)c(C(=O)C2=C(O)CCCC2=O)cc2cccnc21 | 108 to 110 °C
* Cn1c(=O)c(C(=O)C2=C(O)CCCC2=O)cc2cccnc21 | 151 to 153 °C
